Known relative viability of a selection of compounds
Test system: EKVX
Experiment: relative viability (nuclei count vs DMSO), 5 days (fraction); higher = more cells survive
Settings: first compound 0.4 µM
recorded-endpoint: relative viability

compound	recorded-endpoint	reading
O=C(O)c1ccc(-c2c[nH]c3ncc(-c4ccccc4)cc23)cc1C1CCCC1 + CC(=O)Nc1cccc(-n2c(=O)n(C3CC3)c(=O)c3c(Nc4ccc(I)cc4F)n(C)c(=O)c(C)c32)c1 [Trametinib] (partner 0.02 µM)	relative viability	0.33
O=C(O)c1ccc(-c2c[nH]c3ncc(-c4ccccc4)cc23)cc1C1CCCC1 + O=C(CCCCCCC(=O)Nc1ccccc1)NO [Vorinostat] (partner 1 µM)	relative viability	0.713
O=C(O)c1ccc(-c2c[nH]c3ncc(-c4ccccc4)cc23)cc1C1CCCC1 + CC(C)C[C@H](NC(=O)[C@H](Cc1ccccc1)NC(=O)c1cnccn1)B(O)O [Bortezomib] (partner 0.002 µM)	relative viability	1.03
O=C(O)c1ccc(-c2c[nH]c3ncc(-c4ccccc4)cc23)cc1C1CCCC1 + COc1cccc2cc(-c3nc([C@H]4CC[C@H](C(=O)O)CC4)n4ncnc(N)c34)[nH]c12 [OSI-027] (partner 0.5 µM)	relative viability	0.727
O=C(O)c1ccc(-c2c[nH]c3ncc(-c4ccccc4)cc23)cc1C1CCCC1 + N=C(N)NC(=N)NCCc1ccccc1 [Phenformin] (partner 250 µM)	relative viability	0.245
O=C(O)c1ccc(-c2c[nH]c3ncc(-c4ccccc4)cc23)cc1C1CCCC1 + NC(=O)Nc1cc(-c2cccc(F)c2)sc1C(=O)N[C@H]1CCCNC1 [AZD7762] (partner 0.2 µM)	relative viability	0.888
O=C(O)c1ccc(-c2c[nH]c3ncc(-c4ccccc4)cc23)cc1C1CCCC1 + Nc1ncn([C@H]2C[C@H](O)[C@@H](CO)O2)c(=O)n1 [Decitabine] (partner 2 µM)	relative viability	0.336
